Target: T1, human CD47 protein, His Tag (ACRObiosystems, Cat. No. CD7-H5227) (human, UniProt Q08722 19-139)
T1 construct: bought reagent; also called CD47-His; hCD47-His Tag; not shown: His tag
T1 sequence (Q08722 19-139 limits assumed): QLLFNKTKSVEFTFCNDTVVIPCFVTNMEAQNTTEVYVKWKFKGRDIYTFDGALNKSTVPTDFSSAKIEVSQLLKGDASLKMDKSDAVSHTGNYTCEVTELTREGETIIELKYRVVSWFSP
Assay: ELISA, CD47-His coated, competition with Human-SIRPα-mFc

binder | IC50 [mg/L]
hz3F10-4.2 (antibody, human IgG4 S228P, kappa, V domains shown, humanized 3F10, full-length heavy and light chains) VH: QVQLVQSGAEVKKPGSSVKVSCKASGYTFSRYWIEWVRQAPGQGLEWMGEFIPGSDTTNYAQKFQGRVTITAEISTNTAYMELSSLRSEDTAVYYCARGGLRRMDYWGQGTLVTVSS VL: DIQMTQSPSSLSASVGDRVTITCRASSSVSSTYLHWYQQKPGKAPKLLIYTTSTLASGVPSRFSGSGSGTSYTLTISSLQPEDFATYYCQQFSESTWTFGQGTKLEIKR | 1.74
hz3F10-1.2 (antibody, human IgG4 S228P, kappa, V domains shown, humanized 3F10, full-length heavy and light chains) VH: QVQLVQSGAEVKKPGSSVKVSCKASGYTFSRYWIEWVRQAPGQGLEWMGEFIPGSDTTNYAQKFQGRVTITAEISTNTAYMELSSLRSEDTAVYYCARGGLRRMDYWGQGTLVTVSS VL: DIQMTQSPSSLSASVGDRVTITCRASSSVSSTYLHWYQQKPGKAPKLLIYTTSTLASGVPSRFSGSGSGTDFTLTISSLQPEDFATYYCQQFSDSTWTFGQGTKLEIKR | 1.69
hz3F10-5.1 (antibody, human IgG4 S228P, kappa, V domains shown, humanized 3F10, full-length heavy and light chains) VH: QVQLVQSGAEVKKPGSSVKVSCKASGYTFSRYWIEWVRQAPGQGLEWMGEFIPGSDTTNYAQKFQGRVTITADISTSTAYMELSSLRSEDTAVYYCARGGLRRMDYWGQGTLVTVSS VL: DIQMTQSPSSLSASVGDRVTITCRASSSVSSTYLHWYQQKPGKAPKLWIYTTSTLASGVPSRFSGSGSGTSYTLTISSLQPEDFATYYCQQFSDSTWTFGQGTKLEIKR | 1.7
hz3F10-6.1 (antibody, human IgG4 S228P, kappa, V domains shown, humanized 3F10, full-length heavy and light chains) VH: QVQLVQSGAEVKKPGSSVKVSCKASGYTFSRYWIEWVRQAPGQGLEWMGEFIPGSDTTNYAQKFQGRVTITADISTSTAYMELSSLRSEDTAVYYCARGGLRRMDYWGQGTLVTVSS VL: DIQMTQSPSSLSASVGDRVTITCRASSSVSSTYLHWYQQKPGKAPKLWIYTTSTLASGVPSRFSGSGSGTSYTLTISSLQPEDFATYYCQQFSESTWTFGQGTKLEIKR | 1.77
